// data source = BindingDB's records for doi:10.1016/j.ejmech.2015.02.042

# testedOn: Prostaglandin E synthase (Homo sapiens)
# measurementProtocol: Inhibition of mPGES1 in IL-1beta stimulated human A549 cell microsomal membranes assessed as reduction in PGE2 synthase activity after 15 mins using PGH2 substrate by RP-HPLC method
Readings of IC50 for the listed compounds

[[record]]
compound = "CCCCCCCCCCCC1=C(O)C(=O)C=C(OC)C1=O [CHEBI:65842]"
valuereported = "9.1 µM"


The compound identified as CCCCCCCCCCCC1=C(OC)C(OC)=CC(=O)C1=O registered its IC50 at > 10 µM

Measured IC50 of CCCCCCCCCCCCC1=C(O)C(=O)C=C(O)C1=O : 3.1 µM

COC1=CC(=O)C(OC)=C(C/C=C(\C)CC/C=C(\C)CCC=C(C)C)C1=O has a reported IC50 of > 10 µM

response.value for CCCCCCCCC1=C(OC)C(=O)C=C(OC)C1=O (field: IC50) = > 10 µM

The recorded IC50 for CCCCCCCCCCCCCCC1=C(O)C(=O)C=C(O)C1=O is 1.6 µM

Query CCCCCCCCCCCCCCC1=C(O)C(=O)C=C(OC)C1=O yields IC50 of > 10 µM

Notebook: CCCCCCCCCCCC1=C(OC)C(=O)C=C(OC)C1=O , IC50 read as > 10 µM

Lookup result for CCCCCCCCCCCCCCCC1=C(O)C(=O)C=C(O)C1=O ; measured IC50: 2.1 µM

Form field IC50, entry COC1=CC(=O)C(O)=C(C/C=C(\C)CC/C=C(\C)CCC=C(C)C)C1=O : > 10 µM

###

# testedOn: UniProt:O14684
# Sequence (O14684 whole entry, looked up): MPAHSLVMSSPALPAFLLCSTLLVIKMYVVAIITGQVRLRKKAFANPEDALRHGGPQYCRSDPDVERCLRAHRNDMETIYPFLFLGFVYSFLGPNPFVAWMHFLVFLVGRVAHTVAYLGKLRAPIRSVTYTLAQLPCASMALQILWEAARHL
# measurementProtocol: Inhibition of human mPGES1
readoutKind: pIC50
Field pIC50 (float): negative decimal logarithm of the concentration in molar.

Summary: CCCCCCCCCCCC1=C(O)C(=O)C=C(O)C1=O , UniProt:O14684, pIC50 = 6.68

###

Below: a set of entries, each annotated with reported IC50.
# testedOn: Prostaglandin E synthase (Homo sapiens)
# measurementProtocol: Inhibition of mPGES1 in IL-1beta stimulated human A549 cell microsomal membranes assessed as reduction in PGE2 synthase activity after 15 mins using PGH2 substrate by RP-HPLC method

Sample answers from the record:
[[record]]
mol = "CCCCCCCCCCC1=C(O)C(=O)C=C(OC)C1=O"
readoutkind = "IC50"
valuereported = "> 10 µM"

[[record]]
mol = "CCCCCCC1=C(OC)C(=O)C=C(OC)C1=O"
readoutkind = "IC50"
valuereported = "> 10 µM"

[[record]]
mol = "CCCCCCCCCCCCCCCCC1=C(O)C(=O)C=C(O)C1=O"
readoutkind = "IC50"
valuereported = "> 10 µM"

[[record]]
mol = "CCCCCCCCCCCCCCCCC1=C(OC)C(=O)C=C(OC)C1=O"
readoutkind = "IC50"
valuereported = "> 10 µM"

[[record]]
mol = "COC1=CC(=O)C(=O)C(C/C=C(\\C)CC/C=C(\\C)CCC=C(C)C)=C1OC"
readoutkind = "IC50"
valuereported = "> 10 µM"

[[record]]
mol = "CCCCCCCCCCCC1=C(O)C(=O)C=C(O)C1=O"
readoutkind = "IC50"
valuereported = "0.21 µM"

[[record]]
mol = "COC1=CC(=O)C(OC)=C(C/C=C(\\C)CCC=C(C)C)C1=O"
readoutkind = "IC50"
valuereported = "> 10 µM"

[[record]]
mol = "CCCCCCCCCCC1=C(OC)C(OC)=CC(=O)C1=O"
readoutkind = "IC50"
valuereported = "> 10 µM"


Briefly, IC50 measured for CCCCCCC1=C(O)C(=O)C=C(OC)C1=O : > 10 µM

IC50 reported for this molecule CCCCCCC1=C(OC)C(OC)=CC(=O)C1=O : > 10 µM

IC50 in this record for CCCCCCCCC1=C(O)C(=O)C=C(OC)C1=O : > 10 µM

response.value for CCCCCCCCCCCCCCC1=C(OC)C(OC)=CC(=O)C1=O (field: IC50) = > 10 µM

Query CCCCCCCCCCC1=C(OC)C(=O)C=C(OC)C1=O yields IC50 of > 10 µM
